- Tested on: LOX IMVI melanoma
- test_name: NCI tumour cell line growth inhibition, 48 h

chemical_string	TGI
CN1CN(c2ccccc2)C2(CCN(CCCCCCF)CC2)C1=O	> 100 µM
COC(=O)C12CC(NC(=O)c3csc([C@@H](C[C@H](C(C)C)N(C)C(=O)[C@@H](NC(=O)[C@H]4CCCCN4C)C4CC4)OC(C)=O)n3)(C1)C2	> 16.7 µM
Cn1c(=O)c2[nH]c(SCCN3CCOCC3)nc2n(C)c1=S	> 100 µM
Cc1cc(Nc2nc(C(=O)Nc3ccccc3)nc3ccccc23)n[nH]1	> 25 µM
C[Si](C)(C)C(CCCCSc1ccccc1)(Sc1ccccc1)Sc1ccccc1	> 100 µM
